tested on: TK-10; assay: NCI tumour cell line growth inhibition, 48 h
The source made the active and inactive calls. No stated cut-off is given here; in the data, active = GI50 up to about 1.1 µM and inactive = higher.
MEASUREMENT NAME: GI50

# COMPOUND, MEASUREMENT NAME, RESULT
records = [
    ("COC(=O)c1ccc(C)cc1C1CN=NC12Cc1cc(C)ccc1C2=O (stereo unspecified)", "GI50", "22.8 µM (inactive)"),
    ("CO[P@@]1(=O)O[C@@H](c2ccccc2)[C@H](O)[C@]1(O)c1ccccc1", "GI50", "> 100 µM (inactive)"),
    ("C=C=C(C)C(=O)N(C(C)C)C(C)C", "GI50", "> 100 µM (inactive)"),
    ("Oc1cc(-c2ccccc2)nc2c(S)cccc12", "GI50", "> 100 µM (inactive)"),
    ("C=CCn1c(N)c(C#N)c(C#N)c1CCC", "GI50", "> 100 µM (inactive)"),
    ("c1cc(CNCCN2CCNCC2)ccn1", "GI50", "20.3 µM (inactive)"),
    ("CCOC(=O)c1ccc(/N=C2/C(=S)N(c3ccc(C(=O)OCC)cc3)C(=N)N2/N=C/c2ccccc2)cc1", "GI50", "23.2 µM (inactive)"),
    ("Cc1cc(Cl)nc2nc(Cl)c(N)cc12", "GI50", "6.58 µM (inactive)"),
    ("C/N=c1\\ss/c(=N\\C(=S)N(C)C)n1C", "GI50", "41.1 µM (inactive)"),
    ("NC(=S)N1N=C(c2ccc3c(c2)CCC3)CC1c1ccccc1 (stereo unspecified)", "GI50", "18.1 µM (inactive)"),
    ("COc1cc(C2S/C(=C/c3ccccc3)C(=O)N2c2ccc(Cl)cc2)cc(OC)c1OC (stereo unspecified)", "GI50", "> 100 µM (inactive)"),
    ("CN(C)CCNC(=O)c1c(O)ccc2c1c1c(n2CCc2ccccc2)C(=O)c2ccccc2C1=O", "GI50", "7.93 µM (inactive)"),
    ("Cc1ccc(C)n2c1nc1ccc3ccccc3c12", "GI50", "> 100 µM (inactive)"),
    ("COc1cc(C(C#N)NNC(=O)c2ccccc2O)ccc1O (stereo unspecified)", "GI50", "4.11 µM (inactive)"),
    ("Cc1cc(C)nc(NS(=O)(=O)c2ccc(NC(=O)c3c4ccccc4nc4ccccc34)cc2)n1", "GI50", "82.2 µM (inactive)"),
    ("Clc1ccc(/N=C/C=C/Nc2ccc(Cl)cn2)nc1", "GI50", "19.1 µM (inactive)"),
    ("CCO/C=C1\\N=C(c2ccccc2Br)OC1=O", "GI50", "> 100 µM (inactive)"),
    ("O=S1(=O)OCCOS(=O)(=O)C1(Cl)Cl", "GI50", "> 100 µM (inactive)"),
    ("CCC(=O)C(c1ccccc1)c1ccccn1 (stereo unspecified)", "GI50", "> 100 µM (inactive)"),
    ("Cc1ccc(S(=O)(=O)NC(=O)Nc2cc(Cl)c(S(N)(=O)=O)cc2S(N)(=O)=O)cc1", "GI50", "> 100 µM (inactive)"),
    ("O=C(O)C1C2CCC(O2)C1C(=O)N1CCCCC1 (stereo unspecified)", "GI50", "2.99 µM (inactive)"),
]

* * *

test system: ACHN; experiment: NCI tumour cell line growth inhibition, 48 h
Calls of active or inactive are those of the source. No stated cut-off is given here; in the data, active = GI50 up to about 1.1 µM and inactive = higher.
Outcomes: active, inactive

# COMPOUND, LABEL
records = [
    ("ClC1(Cl)C(c2ccccc2)C1c1ccccc1 (stereo unspecified)", "inactive"),
    ("C=Cc1c(C)c(OC)cc2c1Oc1ccc(OC)c(C)c1CC2", "inactive"),
    ("O=[N+]([O-])c1ccccc1S(=O)(=O)N1CCCc2cc(Cl)ccc21", "inactive"),
    ("COCCOC1=C(Cl)C(=O)c2c(O)ccc(O)c2C1=O", "active"),
    ("C=C1C(=O)C2=C[C@H]1C[C@H](O)C(=O)[C@]1(C)CCCC(C)(C)[C@H]1C[C@H]2O", "active"),
    ("CC1(C)OCC(/C=C\\C(O)CC2(C)OCCO2)CO1 (stereo unspecified)", "inactive"),
    ("Brc1ccc2[nH]cc([C@H]3CN[C@@H](c4c[nH]c5ccc(Br)cc45)CN3)c2c1", "inactive"),
    ("CCOC(=O)C(CC(C)C)NC(=O)CSc1nnc(COc2ccc(Cl)cc2)n1-c1ccccc1 (stereo unspecified)", "inactive"),
    ("COC1=CCC=C(C[C@@H]2NCCc3cc(OC)c(OC)cc32)C1", "inactive"),
    ("Cc1ccc(C)c2sc3cc(=O)ccc-3nc12", "inactive"),
    ("CCOC(=O)/C=C(/C(=O)OCC)n1ccc(=O)n(Cc2cnnn2CCCCOC(C)=O)c1=O", "inactive"),
    ("COc1ccc(OC)c2c3c(ccc12)C(c1ccccc1)OC3=O (stereo unspecified)", "inactive"),
    ("O=C(O)C1CCCN(CCc2c[nH]c3ccccc23)C1 (stereo unspecified)", "inactive"),
    ("CCC(C)(C)/C(CC(O)(C(F)(F)F)C(F)(F)F)=N\\O", "inactive"),
    ("O=C(O)c1cc(C(=O)C(=O)c2cc(C(=O)O)c(O)c3ccccc23)c2ccccc2c1O", "inactive"),
    ("COc1ccc(-c2c(C#N)c(=O)nc(SC)n2C2OCC(OC(C)=O)C(OC(C)=O)C2OC(C)=O)cc1 (stereo unspecified)", "inactive"),
    ("O=C(NC1C2CC3CC(C2)CC1C3)c1cc(/C=C/c2ccccc2)nc(S)n1 (stereo unspecified)", "inactive"),
    ("S=C(N/N=C/c1ccccn1)Nc1ccc(Cl)cc1", "active"),
    ("N#CC(c1ccccc1)N(CCCCCCN(C(=O)c1ccccc1)C(C#N)c1ccccc1)C(=O)c1ccccc1 (stereo unspecified)", "inactive"),
    ("CC(=O)c1sc(=N)n(-c2c(C)cccc2C)c1C", "inactive"),
    ("CC1(C)N=c2c(ncn2-c2ccccc2)=C(C(N)=O)N1", "inactive"),
]

* * *

system: SW-620; test: NCI tumour cell line growth inhibition, 48 h
Activity calls are given as the source filed them. No stated cut-off is given here; in the data, active = GI50 up to about 1.1 µM and inactive = higher.
Outcomes: active, inactive

# MOLECULE, STUDY TARGET, LABEL
records = [
    ("S=C(N/N=C/c1ccccn1)Nc1ccc(Cl)cc1", "SW-620", "active"),
    ("CSc1ncc2c(n1)C(C#N)C1Sc3ccccc3N1C2=O (centres undefined)", "SW-620", "inactive"),
    ("O=C(NC1C2CC3CC(C2)CC1C3)c1cc(/C=C/c2ccccc2)nc(S)n1 (centres undefined)", "SW-620", "inactive"),
    ("Cc1csc(=S)n1OC(=O)NC1CCCCC1", "SW-620", "inactive"),
    ("Cn1nc(-c2ccccc2)c(C(=O)/C=C/c2ccccc2)c(N2CCCCC2)c1=O", "SW-620", "inactive"),
    ("CCOc1ccc(/N=C(/NC(=O)c2ccccc2)SC)cc1", "SW-620", "inactive"),
    ("CO[C@@]12CC(=O)/C(=C(O)\\C=C\\c3ccccc3)C(=O)[C@]1(OC)Cc1ccccc1O2", "SW-620", "inactive"),
    ("C(#Cc1ccccc1)SC1=C(c2ccccc2)S/C(=C(\\SC#Cc2ccccc2)c2ccccc2)S1", "SW-620", "inactive"),
    ("Cc1ccc(C(C)C)c(OCC(=O)N/N=C/c2c[nH]c3ccc(Br)cc23)c1", "SW-620", "inactive"),
]

* * *

tested on: HCT-116; assay: NCI tumour cell line growth inhibition, 48 h
Calls of active or inactive are those of the source. No stated cut-off is given here; in the data, active = GI50 up to about 1.1 µM and inactive = higher.
Entries and their GI50 values follow.

# MOLECULE, STUDY TARGET, GI50
data = [
    ("CCC(=O)Nc1ccc(N2C(=O)/C(=C/c3ccc(O)c(OC)c3)N=C2c2ccccc2)cc1", "HCT-116", "34.4 µM (inactive)"),
    ("CC[C@H](C)C1=C(O)[N@+]2([O-])Oc3ccc(-c4c(O)c(O)c(-c5ccc(O)cc5)c(OC(C)=O)c4OC(C)=O)cc3O[C@]2([C@@H](C)CC)C(=O)N1O", "HCT-116", "10.1 µM (inactive)"),
    ("CCCn1c(C23CC4CC(CC(C4)C2)C3)nc2ccc(Cl)cc2c1=O", "HCT-116", "30.1 µM (inactive)"),
    ("Nc1nc(N)c(-c2ccccc2)c(CCC(=O)Nc2ccc(Cl)cc2)n1", "HCT-116", "> 100 µM (inactive)"),
    ("C=C1C(=O)C2=C[C@H]1C[C@H](O)C(=O)[C@]1(C)CCCC(C)(C)[C@H]1C[C@H]2O", "HCT-116", "1.63 µM (inactive)"),
    ("O=C1c2ccccc2C(=O)c2sc(Nc3cc(Cl)ccc3Cl)nc21", "HCT-116", "3.3 µM (inactive)"),
    ("Oc1cc(-c2ccccc2)c2ccccc2n1", "HCT-116", "64.7 µM (inactive)"),
    ("CCOC(=O)/C=C(/C(=O)OCC)n1ccc(=O)n(Cc2cnnn2CCCCOC(C)=O)c1=O", "HCT-116", "> 100 µM (inactive)"),
    ("[O-][S+](Nc1ccccc1)c1ccc(N2CCOCC2)cc1 (centres undefined)", "HCT-116", "21.2 µM (inactive)"),
]
